biological target: HPK1 (Homo sapiens (Human), UniProt Q92918)
Sequence (Q92918 1-346 limits assumed): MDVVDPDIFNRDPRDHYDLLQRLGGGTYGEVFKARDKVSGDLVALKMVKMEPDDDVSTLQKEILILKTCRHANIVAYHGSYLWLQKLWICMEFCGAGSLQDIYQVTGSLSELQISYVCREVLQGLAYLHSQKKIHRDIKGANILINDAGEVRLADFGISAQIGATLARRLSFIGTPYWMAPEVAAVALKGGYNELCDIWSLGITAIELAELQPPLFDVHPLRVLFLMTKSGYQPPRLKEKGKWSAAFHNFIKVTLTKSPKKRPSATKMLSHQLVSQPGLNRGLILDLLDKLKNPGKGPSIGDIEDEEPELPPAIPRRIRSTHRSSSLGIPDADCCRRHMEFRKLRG
pKi: −log10 of the molar value.
Is pKi at least 7? Then MET. If not, NOT MET.

1. Cc1c(CC#N)ccnc1-c1cc(N)cc(-c2cnc3c(c2Cl)[C@]2(CC[C@](C)(C#N)C2)CN3)c1 (single isomer, unassigned) [Compound 274b]: MET
2. OCc1ccc(-c2cnc3c(c2Cl)C2(CC=CC2)CN3)cc1: NOT MET
3. CN(CC(C)(C)O)C(=O)c1c(N)ccc(-c2cnc3c(c2)C2(CC2)CN3)c1F: MET
4. O=C1Nc2ccc(-c3cnc4c(c3)C3(CC3)CN4)cc2C1(O)C1CC1 (stereo not shown): NOT MET
5. Cn1cccc(-c2cccc(-c3cnc4c(c3Cl)[C@]3(CC[C@](C)(C(N)=O)C3)CN4)c2)c1=O (single isomer, unassigned) [Compound 179a]: NOT MET
6. CN(C)C(=O)c1c(N)ccc(-c2cnc3c(c2Cl)C2(CC=CC2)CN3)c1F: MET
7. Nc1cc(-c2cnc3c(c2)C2(CC2)CN3)nc(N2CCCOC2=O)n1: NOT MET
8. CN(C)C(=O)c1c(N)ccc(-c2cnc3c(c2Cl)[C@@]2(CCNC(=O)C2)CN3)c1F [Compound 122b]: MET
9. CN(C)C(=O)c1c(N)ccc(-c2cnc3c(c2Cl)[C@]2(CC[C@@H](c4cccnc4)C2)CN3)c1F [Compound 145a]: MET
10. CN(C)S(=O)(=O)Nc1cccc(-c2cnc3c(c2Cl)C2(CC=CC2)CN3)c1: NOT MET
11. CN(C)C(=O)c1c(N)ccc(-c2cnc3c(c2)[C@]2(CC[C@H](O)CC2)CN3)c1F [Compound 111a]: MET
12. CN(C)C(=O)c1c(N)ccc(-c2cnc3c(c2)[C@]2(CN3)C[C@](C)(O)C2)c1F [Compound 78a]: NOT MET
13. Cc1c(CC#N)ccnc1-c1cccc(-c2cnc3c(c2Cl)C2(CC=CC2)CN3)c1F: MET
14. CCS(=O)(=O)c1ccc(-c2cnc3c(c2Cl)C2(CC=CC2)CN3)cc1: NOT MET
15. CN(C)C(=O)c1c(N)ccc(-c2cnc3c(c2Cl)[C@]2(CC[C@H](n4cncn4)C2)CN3)c1F [Compound 85a]: MET
16. CCC[C@H]1C[C@]12CNc1ncc(-c3ccc(N)c(C(=O)N(C)C)c3F)cc12 (single isomer, unassigned) [Compound 217d]: MET
17. CC(C)[C@H]1C[C@@]12CNc1ncc(-c3ccc(N)c(C(=O)N(C)C)c3F)cc12 (single isomer, unassigned) [Compound 234a]: MET
18. C[C@H]1Nc2ncc(-c3ccc(N)c(C(=O)N(C)C)c3F)cc2C12CC2 (single isomer, unassigned) [Compound 128a]: MET
19. CN(C)C(=O)c1cccc(-c2cnc3c(c2)[C@]2(CC[C@](C)(C(N)=O)C2)CN3)c1F (single isomer, unassigned) [Compound 199a]: NOT MET
20. O=S(=O)(Nc1cccc(-c2cnc3c(c2Cl)C2(CC=CC2)CN3)c1)C1CC1: NOT MET
21. CN(C)C(=O)c1ccc2[nH]cc(-c3cnc4c(c3)C3(CC3)CN4)c2c1: NOT MET
22. O=C1CCCCN1c1cccc2c(-c3cnc4c(c3Cl)[C@@]3(CC[C@@H](O)C3)CN4)c[nH]c12 (single isomer, unassigned) [Compound 300b]: NOT MET
23. CO[C@@H]1CC[C@@]2(CNc3ncc(-c4ccc(N)c(C(=O)N(C)C)c4F)c(Cl)c32)C1 (relative stereo) [Compound 81a]: MET
